# protocol_description: Volume of distribution at steady state in C57BL/6 mouse at 4 mg/kg, iv
# Assay type: ADME, organism-based
# Parameters: dose 4 mg/kg, route intravenous
# experimental_context: in vivo, read-out: Vdss
recorded_endpoint: Vd (L/kg)
Give the number; L/kg is assumed, so skip it.

Record O=C(O)c1ccc(NC(=O)[C@H](C2CCCCC2)n2c(-c3ccc(Cl)cc3)nc3cc(F)c(F)cc32)c(F)c1 . Reported Vd: 1.24

====

# protocol_description: Solubility of the compound in 0.05 M phosphate buffer at pH 6.5
# Format: physicochemical
recorded_endpoint: log10 of solubility (log10 of the value in µg/mL)
In plain terms, each number is the log10 of measured solubility in µg/mL.

Examples from the recorded data:
>>> print(df.to_string())
                                 cpd_smiles    recorded_endpoint  observed
0  O=C(N[C@H]1CC[C@H](O)CC1)[C@H](C1CCCCC1)n1c(-c2ccc(Cl)cc2)nc2cc(F)c(F)cc21  log10 of solubility      1.23
1  O=C(Nc1ccc(OC2(C(=O)O)CC2)cc1F)[C@H](C1CCCCC1)n1c(-c2ccc(Cl)cc2)nc2cc(F)c(F)cc21  log10 of solubility      2.45
2  O=C(Nc1ccc(-c2nnn[nH]2)cc1F)[C@H](C1CCCCC1)n1c(-c2ccc(Cl)cc2)nc2cc(F)c(F)cc21  log10 of solubility      2.69

Record O=C(O)c1ccc(NC(=O)[C@H](C2CCCCC2)n2c(-c3ccc(Cl)cc3)nc3ccccc32)c(C(F)(F)F)c1 . Reported log10 of solubility: 2.24

Record COc1ccc(-c2nc3cc(F)c(F)cc3n2[C@H](C(=O)N[C@H]2CC[C@H](C(=O)O)CC2)C2CCCCC2)c(OC)n1 . Reported log10 of solubility: 2.67

Record O=C(N[C@H]1CC[C@H](C(=O)O)CC1)[C@H](C1CCCCC1)n1c(-c2ccc(Cl)cc2)nc2cc(F)c(F)cc21 . Reported log10 of solubility: 2.60

Record O=C(O)c1ccc(NC(=O)[C@H](C2CCCCC2)n2c(-c3ccc(Cl)cc3)nc3cc(F)c(F)cc32)c(Cl)c1 . Reported log10 of solubility: 1.71

Record O=C(O)c1ccc(NC(=O)[C@H](C2CCCCC2)n2c(-c3ccc(Cl)cc3)nc3cc(F)c(F)cc32)cc1 . Reported log10 of solubility: 1.94

Record O=C(O)c1ccc(NC(=O)[C@H](C2CCCCC2)n2c(-c3ccc(Cl)cc3)nc3cc(F)c(F)cc32)c(F)c1 . Reported log10 of solubility: 2.06

Record Cc1cc(C(=O)O)ccc1NC(=O)[C@H](C1CCCCC1)n1c(-c2ccc(Cl)cc2)nc2cc(F)c(F)cc21 . Reported log10 of solubility: 1.51
